# assayed system: beta-catenin/TCF4 engagement (Homo sapiens, UniProt P35222)
# Construct: expressed in transfected cells; host or cells: HEK293
# Sequence (P35222 whole entry): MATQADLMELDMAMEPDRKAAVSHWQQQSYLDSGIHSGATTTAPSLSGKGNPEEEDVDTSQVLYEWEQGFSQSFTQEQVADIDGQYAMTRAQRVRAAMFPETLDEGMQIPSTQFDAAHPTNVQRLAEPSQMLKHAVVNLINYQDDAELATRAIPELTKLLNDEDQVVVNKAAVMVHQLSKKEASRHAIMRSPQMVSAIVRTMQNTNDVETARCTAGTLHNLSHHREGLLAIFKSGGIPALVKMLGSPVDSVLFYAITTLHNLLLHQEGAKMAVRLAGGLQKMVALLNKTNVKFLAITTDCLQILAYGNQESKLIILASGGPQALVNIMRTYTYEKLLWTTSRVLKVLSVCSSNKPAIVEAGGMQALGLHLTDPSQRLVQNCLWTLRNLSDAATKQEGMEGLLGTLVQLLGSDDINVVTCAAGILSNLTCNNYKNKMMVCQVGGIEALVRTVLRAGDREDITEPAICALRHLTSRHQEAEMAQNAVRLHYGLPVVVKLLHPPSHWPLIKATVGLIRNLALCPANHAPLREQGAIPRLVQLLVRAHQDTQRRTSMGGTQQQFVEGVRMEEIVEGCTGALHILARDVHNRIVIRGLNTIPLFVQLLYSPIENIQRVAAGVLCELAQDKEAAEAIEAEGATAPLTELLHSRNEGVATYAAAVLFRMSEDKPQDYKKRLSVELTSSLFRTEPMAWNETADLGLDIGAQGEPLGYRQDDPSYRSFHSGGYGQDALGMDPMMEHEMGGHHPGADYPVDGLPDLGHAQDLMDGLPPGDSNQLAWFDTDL
# protocol text: Nano-BRET target engagement assay (B-cat-Halo & TCF4-Luc in HEK293 cells)
# Type: cell-based
# details: absolute IC50; read-out: NanoBRET Abs IC50
The entries below are paired with their reported pIC50.
# pIC50: negative log10 of molar concentration; output just the value

# molecule, measured property, meas value
records = [
    ("CC(=O)N1CCC[C@]12CC=CCCCC1(CCCC=CCCCOC(=O)N3CC[C@@](C(=O)N[C@@H](Cc4ccsc4)C(=O)N[C@@H](Cc4csc5ccccc45)C(=O)N[C@@H](C)C(N)=O)(C3)NC(=O)[C@H](CC(C)C)NC(=O)[C@H](Cc3ccccc3)NC(=O)[C@H](C)NC(=O)[C@H](C)NC(=O)[C@H](Cc3cccc(C(=O)O)c3)NC(=O)[C@H](CC(=O)O)NC1=O)NC(=O)[C@H](CC(C)(C)C)NC(=O)[C@H](CC(=O)O)NC2=O (some centres unmarked)", "pIC50", 5.54),
    ("CC(=O)N1CCC[C@]12CC=CCCCC1(CCCC=CCCCOC(=O)N3CC[C@@](C(=O)N[C@@H](Cc4ccccc4Cl)C(=O)N[C@@H](Cc4csc5ccccc45)C(=O)N[C@@H](CC(=O)N4CCN(C)CC4)C(N)=O)(C3)NC(=O)[C@H]([C@@H](C)O)NC(=O)[C@H](Cc3ccccc3)NC(=O)[C@H](C)NC(=O)[C@H](C)NC(=O)[C@H](CN(CC(=O)O)CC(F)(F)F)NC(=O)[C@H](CC(=O)O)NC1=O)NC(=O)[C@H](CC(C)(C)C)NC(=O)[C@H](CC(=O)O)NC2=O (some centres unmarked)", "pIC50", 5.01),
]

Report pIC50 on beta-catenin/TCF4 engagement (Homo sapiens, UniProt P35222) for this entry: CCN(CC)C(=O)[C@H](CCC(N)=O)NC(=O)[C@H](Cc1csc2ccccc12)NC(=O)[C@H](Cc1ccsc1)NC(=O)[C@]12CCN(C1)C(=O)OCCCC=CCCCC1(CCCC=CC[C@]3(CCCN3C(C)=O)C(=O)N[C@@H](CC(=O)O)C(=O)N[C@@H](CC(C)(C)C)C(=O)N1)C(=O)N[C@@H](CC(=O)O)C(=O)N[C@@H](CN(CC(=O)O)CC(F)(F)F)C(=O)N[C@@H](C)C(=O)N[C@@H](C)C(=O)N[C@@H](Cc1ccccc1)C(=O)N[C@@H](CC(N)=O)C(=O)N2 (some centres unmarked) 4.83
